Task for the reader: assign each of the following sequences its reported total protein half-life in vivo.
# ASSAY: total protein half-life in vivo (active degradation + dilution); higher = more stable protein
# MEASUREMENT_PARAMETERS: wild type E. coli NCM3722; growth: P-lim chemostat; doubling time 6 h
Just the number in h, nothing appended.

(Q) Return the recorded total protein half-life in vivo value; entry: MLRHITFTVFITTSMNTLATGMVPETSVLLVDEKRGEASINIKNTDDHPSLLYTTIVDLPESNKSIRLIPTQPVIRVEAGQVQQVRFLLQATVPLQSEELKRVTFEGIPPKDDKSSRVTVSIRQDLPVLIHPASLPEERETWKFLEWRKNGDQIEISNPSNYVVRMTLQFKTLPSGKTGAINKTYFLPHTSTTTALTNATDTKVEFYPASRYGYRGNKYVTDLK
(A) 4.81

(Q) Return the recorded total protein half-life in vivo value; entry: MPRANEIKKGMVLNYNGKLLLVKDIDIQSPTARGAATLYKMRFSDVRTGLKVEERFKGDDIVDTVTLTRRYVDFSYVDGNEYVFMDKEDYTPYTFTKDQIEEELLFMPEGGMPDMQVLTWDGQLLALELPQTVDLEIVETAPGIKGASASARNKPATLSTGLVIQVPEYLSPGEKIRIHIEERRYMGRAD [P0A6N8]
(A) 5.26

(Q) Return the recorded total protein half-life in vivo value; entry: MYERYAGLIFDMDGTILDTEPTHRKAWREVLGHYGLQYDIQAMIALNGSPTWRIAQAIIELNQADLDPHALAREKTEAVRSMLLDSVEPLPLVDVVKSWHGRRPMAVGTGSESAIAEALLAHLGLRHYFDAVVAADHVKHHKPAPDTFLLCAQRMGVQPTQCVVFEDADFGIQAARAAGMDAVDVRLL
(A) 2.46

(Q) Return the recorded total protein half-life in vivo value; entry: MTKPYVRLDKNDAAVLLVDHQAGLLSLVRDIEPDKFKNNVLALGDLAKYFNLPTILTTSFETGPNGPLVPELKAQFPDTPYIARPGNINAWDNEDFVKAVKATGKKQLIIAGVVTEVCVAFPALSAIEEGFDVFVVTDASGTFNEITRHSAWDRLSQAGAQLMTWFGVACELHRDWRNDIEGLATLFSNHIPDYRNLMTSYDTLTKQK
(A) 5.84

(Q) Return the recorded total protein half-life in vivo value; entry: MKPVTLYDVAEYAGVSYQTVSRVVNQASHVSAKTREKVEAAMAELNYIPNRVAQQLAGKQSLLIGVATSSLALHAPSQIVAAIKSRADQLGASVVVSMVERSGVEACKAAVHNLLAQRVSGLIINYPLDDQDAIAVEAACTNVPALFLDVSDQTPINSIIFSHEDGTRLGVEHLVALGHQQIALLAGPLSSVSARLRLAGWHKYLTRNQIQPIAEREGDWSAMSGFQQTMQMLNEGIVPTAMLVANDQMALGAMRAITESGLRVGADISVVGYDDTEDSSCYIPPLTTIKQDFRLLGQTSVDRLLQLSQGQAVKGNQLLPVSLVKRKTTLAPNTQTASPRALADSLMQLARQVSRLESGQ
(A) 4.77

(Q) Return the recorded total protein half-life in vivo value; entry: MANRMILNETAWFGRGAVGALTDEVKRRGYQKALIVTDKTLVQCGVVAKVTDKMDAAGLAWAIYDGVVPNPTITVVKEGLGVFQNSGADYLIAIGGGSPQDTCKAIGIISNNPEFADVRSLEGLSPTNKPSVPILAIPTTAGTAAEVTINYVITDEEKRRKFVCVDPHDIPQVAFIDADMMDGMPPALKAATGVDALTHAIEGYITRGAWALTDALHIKAIEIIAGALRGSVAGDKDAGEEMALGQYVAGMGFSNVGLGLVHGMAHPLGAFYNTPHGVANAILLPHVMRYNADFTGEKYRDIARVMGVKVEGMSLEEARNAAVEAVFALNRDVGIPPHLRDVGVRKEDIPALAQAALDDVCTGGNPREATLEDIVELYHTAW [P0A9S1]
(A) 5.48
